- Tested on: SN12C renal
- EXPERIMENTAL PROTOCOL: NCI tumour cell line growth inhibition, 48 h
Recorded measurements of GI50, one per entry

Study these solved cases before continuing.
compound=CCCOc1ccc2sc(NC(=O)OC)nc2c1 tested_on="SN12C renal" observed_result="6.2 µM"
compound="CC(C)(S)C(N)C(=O)O (stereo not drawn)" tested_on="SN12C renal" observed_result="> 5000 µM"
compound=COc1cc2c3c(n(CCCOC(=O)C(F)(F)F)c(=O)c2cc1OC)-c1cc2c(cc1C3=O)OCO2 tested_on="SN12C renal" observed_result="< 0.01 µM"
compound=C#COc1cccc(Nc2c(C#N)cnc3ncc(NC(=O)CCl)cc23)c1 tested_on="SN12C renal" observed_result="16.2 µM"
compound=CCCCCOc1ccc(/C=N/Nc2cc(C)nc3ccc(Br)cc23)cc1 tested_on="SN12C renal" observed_result="1.72 µM"

Incoming: What GI50 appears in the records for this compound with SN12C renal? CC1=C(C(=O)Nc2ccc(Cl)c(Cl)c2)C(c2cccc(Oc3ccccc3)c2)NC(=O)N1 (stereo not drawn)
Outgoing: 5.28 µM

Incoming: SN12C renal / GI50 / Cc1[nH]c(/C=C2\C(=O)Nc3ccccc32)c(C)c1CCC(=O)O : value?
Outgoing: 24.7 µM

Incoming: Item: N#CC1=C(N)Oc2cc(O)ccc2C1c1cccc2ccccc12 (stereo not drawn) Test system: SN12C renal Read-out: GI50 Value: ?
Outgoing: 20.4 µM

====

- Tested on: A498 renal
- EXPERIMENTAL PROTOCOL: NCI tumour cell line growth inhibition, 48 h
QUANTITY KIND: TGI (µM)
Reply with just the number (in µM).

Worked examples follow.
molecule=C[C@H]1[C@H](C)CC[C@]2(C(=O)Nc3ccc4ncccc4c3)CC[C@]3(C)C(=CC[C@@H]4[C@@]5(C)CCCNC(C)(C)[C@@H]5CC[C@]43C)[C@H]12 quantity_kind=TGI measurement_unit=µM observed_result=2.96
molecule=O=S(=O)(Nc1ccc(F)cc1F)c1ccc(-c2cnc(C3CC3)o2)cc1 quantity_kind=TGI measurement_unit=µM observed_result=2.08
molecule=O=C(O)c1nc2ccc(C(F)(F)F)cc2nc1NCc1ccc(F)cc1 quantity_kind=TGI measurement_unit=µM observed_result=55.4

# input for lookup
Incoming: # get_value(readout='TGI', item= CN(CCO)c1ccc(N2Cc3ccccc3OC3=C2C(=O)c2c(O)ccc(O)c2C3=O)cn1 )
Outgoing: 5.66

====

Let's look at some compounds and their measured TGI.
- System: MALME-3M melanoma
- EXPERIMENTAL PROTOCOL: NCI tumour cell line growth inhibition, 48 h
# output: bare number, implied unit µM

Incoming: Find the recorded TGI belonging to CCN(Cc1ccccc1C)c1ccc(CO)c(Cl)c1 and report it.
Outgoing: 32

Incoming: Fill blank: measured TGI of the compound c1ccc2c(c1)c1c(c3ccccc32)CN2CCCC2C1 (stereo not given) is ____.
Outgoing: 7.14

Incoming: TGI lookup needed for O=C(CCc1cc(O)ccc1O)OCCc1ccccc1 , thanks.
Outgoing: 23.5

====

- System: ACHN renal
- EXPERIMENTAL PROTOCOL: NCI tumour cell line growth inhibition, 48 h
Listing of recorded TGI by entry.

Some solved cases for reference:
molecule=CN(C)CCNC(=O)c1ccc2nc3c(nc2c1)C(=O)c1ccccc1-3 observed_result="> 100 µM"
molecule=Cc1cc(C)c(/C=C2\C(=O)Nc3ccc(NC(=O)CCCCCCC(=O)NO)cc32)[nH]1 observed_result="> 100 µM"
molecule="COc1ccc2[nH]c3c(c2c1)CC(=S)N1CCCC(CC3=O)C1 (centres undefined)" observed_result="> 100 µM"
molecule="CC(=O)O[C@H]1CCC2[C@@H]3CCC4Nc5[nH]ncc5C[C@]4(C)C3CC[C@@]21C (some centres undefined)" observed_result="> 100 µM"
molecule="Cn1c(=O)oc2cc(C(O)CN3CCN(Cc4ccccn4)CC3)c(Cl)cc21 (centres undefined)" observed_result="> 100 µM"

Incoming: Fill blank: measured TGI of the molecule Cc1cc2c(cc1C)C(=O)C1(C2)Cc2c(C)ccc(C)c2C1=O (centres undefined) is ____.
Outgoing: > 100 µM

Incoming: Which TGI is reported for this molecule? COc1ccc(-n2cnn3c(=O)c4cn[nH]c4nc23)cc1
Outgoing: > 10 µM

Incoming: Any idea what its TGI is? The molecule is O=C(Oc1cccnc1)c1cc2cc(CCl)ccc2oc1=O
Outgoing: > 100 µM

Incoming: Name the recorded TGI for c1ccc(NN=C(c2ccccn2)c2ccccn2)nc1 .
Outgoing: > 100 µM

Incoming: Query (molecule): c1ccc2nc3c(nc2c1)sc1ccccc13 ; field requested: TGI
Outgoing: 35.7 µM

Incoming: Entry under review: CCOP(=O)(COCCn1ncc(=O)[nH]c1=O)OCC . Reported TGI?
Outgoing: > 100 µM

Incoming: Can you look up the measured TGI of COc1cc2c(c(OC)c1OC)-c1ncc3cc4c(cc3c1C2)OCO4 for me?
Outgoing: 73.6 µM

Incoming: What TGI value was documented for this molecule, COc1ccc(-c2csc(Cc3nc4ccccc4c(=O)n3-c3ccc(Cl)cc3)n2)cc1 ?
Outgoing: > 100 µM

Incoming: # query: TGI of entry O[C@H](c1cc(C(F)(F)F)nc2c(C(F)(F)F)cccc12)[C@@H]1CCCCN1
Outgoing: 10.7 µM

Attribution: PubChem BioAssay (NCI)
